Origin of measurements: patent US20250027068

Assignment: determine reported Enzyme Activity Endpoint Assay (purified): scIgG for the given proteins.
- system name: pooled human IgG (human IgG1, 2, 3 and 4)
Numeric only. Scale: ng/µL

Measured Enzyme Activity Endpoint Assay (purified): scIgG of PRT-611 (protein) MQITSVWTKGVTPLTPEQFRYNNEDVIHAPYLAHQGWYDITKAFDGKDNLLCGAATAGNMLHWWFDQNKTEIEAYLSKHPEKQKIIFNNQELFDLKAAIDTKDSQTNSQLFNYFRDKAFPNLSARQLGVMPDLVLDMFINGYYLNVFKTQSTDVNRPYQDKDKRGGIFDAVFTRGDQTTLLTARYDLYNKGLNDISTIIKQELTEGRALALSHTYANVSISHVINLWGADFNAEGNLEAIYVTDSDANASIGMKKYFVGINAHGHVAISAKKIEGENIGAQVLGLFTLSSGKDIWQKLSLEHHHHHH : 0

Measured Enzyme Activity Endpoint Assay (purified): scIgG of PRT-610 (protein) MQITSVWTKGVTPLTPEQFRYNNEDVIHAPYLAHQGWYDITKAFDGKDNLLCGAATAGNMLHWWFDQNKTEIEAYLSKHPEKQKIIFNNQELFDLKAAIDTKDSQTNSQLFNYFRDKAFPNLSARQLGVMPDLVLDMFINGYYLNVFKTQSTDVNRPYQDKDKRGGIFDAVFTRGDQTTLLTARHDLKNKGLNDISTIIKQELTEGRALALSHTYANVSISHVINLWGADFNAEGNLEAIYVTDSDANASIGMKKYYVGINAHGHVAISAYKIEGENIGAQVLGLFTLSSGKDIWQKLSLEHHHHHH : 0
